From: ChEMBL document CHEMBL3433997

TARGET_DESC: Hexose transporter 1 (Plasmodium falciparum)
ASSAY_NAME: ST_JUDE_LEISH: Cytotoxicity at 2uM final concentration against transgenic Leishmania Mexicana promastigotes LmPfHT that are glucose transport deficient and complemented with the Plasmodium falciparum hexose transporter. Activity is measured by DNA content using SYBR green in vitro
Assay type: functional
Returns Met if the recorded inhibition is greater than or equal to 10%, and Not met otherwise.

I'd appreciate it if you could say whether CN1CCCC(CN2CCN(Cc3cccc(-c4csc(-c5nc6ccccc6[nH]5)c4)c3)CC2)C1 (stereo not given) has inhibition at least equal to 10%. Not met

I'd appreciate it if you could say whether CC(C(=O)N1CCCC1)N1CCN(S(=O)(=O)c2ccc(C(C)(C)C)cc2)CC1 (stereo not given) has inhibition at least equal to 10%. Not met

I'd appreciate it if you could say whether CN1CCCN(Cc2cccc(-c3ccc(NC(=O)c4cccc(C#N)c4)cc3)c2)CC1 has inhibition at least equal to 10%. Met

I'd appreciate it if you could say whether Clc1ccc(-c2nc3cc(-c4ccc5nc(-c6ccc(Cl)cc6)[nH]c5c4)ccc3[nH]2)cc1 has inhibition at least equal to 10%. Met

I'd appreciate it if you could say whether c1ccc(CN2CCN(CCCCNc3c4ccccc4nc4ccccc34)CC2)cc1 has inhibition at least equal to 10%. Met
